# assay-text: basal RPMI8226 mitochondrial membrane potential changes, profiling panel, cell-based, JC-1 fluorescence, 24 h, 100 nL compound (AID 1169); further: test concentration not given here
# stated-conditions: RPMI8226 myeloma, JC-1 mitochondrial potential fluorescence, higher = more signal
assay-endpoint: z-score
Answers are plain numbers.

Reference set, count: 3
CCOC(=O)[C@H](Cc1ccccc1)NC(=O)CCC1CC(OC(=O)NCc2cccc3ccccc23)CC2(CCCC(COC(=O)NCc3ccc4c(c3)OCO4)O2)O1 (some centres undefined) : -0.675
CC#CCOCCC=C1c2ccccc2[C@@H](OC)[C@@H]1C : -0.773
CO[C@H]1COC(=O)[C@H](C)COC(=O)[C@H](C)NC(=O)CC=C[C@H]1C : -0.218

We now examine a further compound.
Request the reported z-score associated with C[C@@H]1CC[C@H]2C(=O)O[C@@H](COc3ccc(C(C)(C)C)cc3)CN2[C@H]1c1ccc(Br)cc1
-0.16

----------
# Tested on: Wnt5a (protein binding on small-molecule microarray)
# assay-text: Wnt5a binders on small-molecule microarray, primary screen, biophysical, 635/667 nm fluorescence (AID 1142);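 further: fluorescence read at 667 nm with signal to noise per printed feature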
# stated-conditions: 635 nm fluorescence, higher = more signal
assay-endpoint: composite z-score
Numbers only.

Reference set, count: 3
CC(C)[C@@H](OCc1ccccc1)[C@H](C)C=NO[C@H](C)c1cn([C@@H]2COC[C@H]2O)nn1 : 0.31
CC(C)=NO[C@@H](C)c1cn([C@H](CO)Cc2ccccc2)nn1 : 0.0949
COc1ccc(COC(=O)NN=C2C[C@@H](O)[C@@H](O)[C@@H]3[C@@H]4C(=O)N([C@@H](C)c5ccccc5)C(=O)[C@@H]4CC[C@@H]23)cc1 : 0.251

Report composite z-score for each item below.
1. CC(C)[C@@H](OCc1ccccc1)[C@H](C)C=NOC[C@@H](O)[C@H]1O[C@@H]2OC(C)(C)O[C@@H]2[C@H]1O
2. C[C@@H]1CC[C@H]2C(=O)OC(Cc3ccccc3)CN2[C@H]1c1ccc(Br)cc1 (stereo partly specified)
3. CC(C)=NOC(C)CN1CCCc2nc(C)c(C)cc21 (stereo unspecified)
4. CCN1C(=O)[C@H]2[C@@H]3C(=CC[C@H]2C1=O)C(=O)[C@H]1O[C@H]1[C@H]3O
5. CCN1C(=O)[C@H]2[C@H]3[C@H](O)[C@H](O)CC(=NOC(C)CN4CCCc5nc(C)c(C)cc54)[C@@H]3CC[C@H]2C1=O (stereo partly specified)

[0.332, -0.0444, 0.299, 0.116, 0.223]

Report composite z-score for each item below.
1. COC(=O)[C@H](C)NC(=O)CCC1CC(OC(=O)NCCc2ccc(F)cc2)CC2(CCCC(COC(=O)NCC3CCCCC3)O2)O1 (stereo partly specified)
2. COC(=O)CC=C1c2ccccc2[C@H](OC)[C@H]1C
3. COc1ccc(COC(=O)NN=C2C[C@@H](O)[C@@H](O)[C@@H]3[C@@H]4C(=O)N(Cc5ccccc5)C(=O)[C@@H]4CC[C@@H]23)cc1
4. C[C@@H](c1ccccc1)N1C(=O)[C@H]2[C@H]3[C@H](O)[C@H](O)CC(=NOCc4ccccc4)[C@@H]3CC[C@H]2C1=O

1: 0.374; 2: 0.0034; 3: -0.0129; 4: 0.0765

Report composite z-score for each item below.
1. COC(=O)[C@H](C)NC(=O)CCC1CC(OC(=O)NCc2cccc3ccccc23)CC2(CCCC(COC(=O)NCc3cccc(C(F)(F)F)c3)O2)O1 (stereo partly specified)
2. COC(=O)CC=C[C@@H](C)[C@@H](C=NOC(C)CN1CCCCc2nc(C)c(C)cc21)NS(=O)(=O)c1ccc(C)cc1 (stereo partly specified)
3. C[C@]12CCC3c4ccc(OCC5CO5)cc4CCC3C1CC[C@@H]2O (stereo partly specified)
4. CC(=O)OC[C@H]1O[C@H](CCON=C(C)C)C=C[C@@H]1OC(C)=O
5. CON=C[C@@H](OC)[C@H](C)C=CCC(=O)OC

1: 0.166; 2: 0.104; 3: 0.201; 4: 0.0141; 5: -0.115

Report composite z-score for each item below.
1. CC(CCC(=O)OC[C@H]1O[C@H](C#Cc2ccccc2)C=C[C@@H]1Oc1ccc(C)cc1)=NO[C@H](C)c1cn([C@@H]2COC[C@H]2O)nn1
2. CC(CCN1CCc2nc(-c3ccccc3)c(-c3ccccc3)cc2C1)=NO[C@@H](C)c1cc(-c2c(C)cc(C)cc2C)no1
3. O=C1[C@H]2[C@H]3[C@H](O)[C@H](O)CC(=NOC[C@@H](O)COCc4ccco4)[C@@H]3CC[C@H]2C(=O)N1Cc1ccccc1

[-0.0352, -0.405, -0.0051]

Report composite z-score for each item below.
1. COC(=O)C1=C(C)N(Cc2ccccc2)C2=C3C(=O)OCC[C@@H]3[C@@](O)(C(=O)OC)C(=O)N2[C@@H]1c1ccccc1
2. CCOC(=O)[C@H](Cc1ccccc1)NC(=O)CCC1CC(OC(=O)NCc2cccc3ccccc23)CC2(CCCC(COC(=O)NCCc3ccccc3OC)O2)O1 (stereo partly specified)
3. COCCNC(=O)OCC1CCCC2(CC(OC(=O)NCc3cccc4ccccc34)CC(CCC(=O)N[C@@H](C)C(=O)OC)O2)O1 (stereo partly specified)
4. COC(=O)CC=C[C@@H](C)[C@@H](C=NOC[C@@H](C)[C@H](OCc1ccccc1)C(C)C)NS(=O)(=O)c1ccc(C)cc1
5. O=C1[C@H]2[C@H]3[C@H](O)[C@H](O)CC(=NO[C@@H]4O[C@H](CO)[C@@H](O)[C@H](O)[C@H]4O)[C@@H]3CC[C@H]2C(=O)N1C1CCCCC1
6. COCOc1ccc(Br)cc1C(=O)C=Cc1ccc2c(c1)OCO2

1. 0.226
2. 0.201
3. 0.278
4. -0.122
5. 0.258
6. -0.18

Report composite z-score for each item below.
1. CC(CCN1CCCCc2nc(C)c(C)cc21)=NOC[C@@H](O)[C@H]1O[C@@H]2OC(C)(C)O[C@@H]2[C@H]1O
2. C[C@@H]1CC[C@H]2C(=O)O[C@@H](CN=[N+]=[N-])CN2[C@H]1c1ccc(Br)cc1

1: 0.228; 2: -0.0229

Report composite z-score for each item below.
1. COC(=O)CC=C[C@@H](C)[C@@H](C=NOC(C)CN1CCCc2nc(C)c(C)cc21)NS(=O)(=O)c1ccc(C)cc1 (stereo partly specified)
2. CN1CCc2nc(-c3ccccc3)c(-c3ccccc3)cc2C1
3. CC(C)(C)N1C(=O)[C@H]2[C@H]3[C@H](O)[C@H](O)CC(=NOC[C@@H](O)COCc4ccco4)[C@@H]3CC[C@H]2C1=O

0.448
0.0321
0.0983

----------
For each entry below, report its composite z-score value.
# assay-text: small-molecule microarray binders of probe aNog, primary screen, biochemical, biotinylated probe, 635/667 nm fluorescence (AID 1115);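 further: probe is biotinylated aNog protein used at 0.15 µg/mL for 1 h at 4 C; z-score combines 667 nm fluorescence of each spot with its signal to noise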
# stated-conditions: higher = more signal

Reference set, count: 2
CCOC(=O)[C@H](Cc1ccccc1)NC(=O)CCC1CC(OC(=O)NCc2ccc3c(c2)OCO3)CC2(CCCC(COC(=O)NCCc3ccc(Cl)cc3)O2)O1 (stereo not given in full) : 0.0308
CC(C)CON=C1[C@H]2CCn3c(=O)n(C)c(=O)n3[C@H]2[C@H](O)[C@@H]2O[C@H]12 : -0.232

Report composite z-score for each item below.
1. COC(=O)C(C(=O)OC)C1CCCC(=O)C1 (stereo not given)
2. CC(CCN1CCCCc2nc(C)c(C)cc21)=NOC[C@@H](O)[C@H]1O[C@@H]2OC(C)(C)O[C@@H]2[C@H]1O
3. CCOC(=O)CCN1C(=O)[C@H]2[C@H]3[C@H](O)[C@H](O)CC(=NO[C@@H]4O[C@H](CO)[C@@H](O)[C@H](O)[C@H]4O)[C@@H]3CC[C@H]2C1=O
4. CCOC(=O)CCN1C(=O)[C@H]2[C@H]3[C@H](O)[C@H](O)CC(=NNC(=O)OCC)[C@H]3CC[C@H]2C1=O
5. CCOC(=O)[C@H](CC(C)C)NC(=O)CCC1CC(OC(=O)NCc2ccc3c(c2)OCO3)CC2(CCCC(COC(=O)NCCc3ccc(Cl)cc3)O2)O1 (stereo not given in full)
6. CCN1C(=O)[C@H]2[C@H]3[C@H](O)[C@H](O)CC(=NOC(C)CN4CCCc5nc(C)c(C)cc54)[C@@H]3CC[C@H]2C1=O (stereo not given in full)
7. CCc1cc2c(nc1CC)CCN(CCC(C)=NOC(C)CN1CCCCc3nc(C)c(C)cc31)C2 (stereo not given)
8. COCCNC(=O)OCC1CCCC2(CC(OC(=O)NCc3cccc4ccccc34)CC(CCC(=O)N[C@@H](C)C(=O)OC)O2)O1 (stereo not given in full)

1: -0.0446; 2: 0.0254; 3: -0.0784; 4: 0.121; 5: -0.363; 6: 0.182; 7: -0.1; 8: -0.256

Report composite z-score for each item below.
1. C=CCOCC1CN2[C@@H](CC[C@@H](C)[C@@H]2c2ccc(Br)cc2)C(=O)O1 (stereo not given in full)
2. CC(C)CN1CCc2nc(-c3ccccc3)c3c(c2C1)CO[C@@H](C)C3
3. CC(C)=CCCC(C)=CCON=C1C[C@@H](O)[C@@H](O)[C@@H]2[C@@H]3C(=O)N(c4cccc(Oc5ccccc5)c4)C(=O)[C@@H]3CC[C@H]12
4. CC(C)CON=C1C[C@@H](O)[C@@H](O)[C@@H]2[C@@H]3C(=O)N([C@@H](C)c4ccccc4)C(=O)[C@@H]3CC[C@@H]12
5. CCCC[C@H]1CN2[C@@H](CC[C@@H](C)[C@@H]2c2ccc(Br)cc2)C(=O)O1
6. O=C1[C@H]2[C@H]3[C@H](O)[C@H](O)CC(=NOC[C@@H](O)COCc4ccco4)[C@@H]3CC[C@H]2C(=O)N1c1cccc(Oc2ccccc2)c1
7. Cc1cc(C)c(-c2cc([C@H](C)ON=C[C@@H](C)[C@H](OCc3ccccc3)C(C)C)on2)c(C)c1

1. -0.196
2. -0.149
3. -0.0129
4. -0.222
5. -0.188
6. -0.29
7. -0.168

Report composite z-score for each item below.
1. CCN1C(=O)[C@H]2[C@H]3[C@H](O)[C@H](O)CC(=NO[C@@H]4O[C@H](CO)[C@@H](O)[C@H](O)[C@H]4O)[C@H]3CC[C@H]2C1=O
2. CON=C[C@@H](OC)[C@H](C)C=CCC(=O)OC

1. 0.117
2. -0.296

Report composite z-score for each item below.
1. C#CCCCON=C1[C@H]2CCn3c(=O)n([C@@H](CC)c4ccccc4)c(=O)n3[C@H]2[C@H](O)[C@@H]2O[C@H]12
2. CCOC(=O)[C@H](CC(C)C)NC(=O)CCC1CC(OC(=O)NCCc2ccc(F)cc2)CC2(CCCC(COC(=O)NCCOC)O2)O1 (stereo not given in full)
3. COC(=O)[C@@H]1CC[C@H](C)[C@@H](c2ccc(C)cc2)N1C(=O)c1ccc(C=NO[C@@H](C)c2cc(-c3c(C)cc(C)cc3C)no2)cc1
4. CC[C@@H](c1ccccc1)n1c(=O)n2n(c1=O)[C@H]1[C@H](O)[C@@H]3O[C@@H]3C(=NOCc3ccccc3)[C@H]1CC2
5. CCN1C(=O)[C@H]2[C@H]3[C@H](O)[C@H](O)CC(=NOCC[C@@H]4C=C[C@H](OC(C)=O)[C@@H](COC(C)=O)O4)[C@@H]3CC[C@H]2C1=O
6. CC(CCN1CCc2nc(-c3ccccc3)c(-c3ccccc3)cc2C1)=NOC(C)CN1CCCc2nc(C)c(C)cc21 (stereo not given)

[-0.35, -0.438, 0.0373, -0.0606, 0.029, 0.378]
